Hi there, I'd appreciate the recorded drug sensitivity score for every entry that follows.
Tested on: ZR-75-1
assay_details: drug sensitivity score (DSS) (DSS (dimensionless)); higher = more sensitive; extreme values may be limits of the assay
study_conditions: 4-OH-tamoxifen in medium 1 µM; 72 h

// below: answered molecules
[
  {
    "molecule": "CNC(=O)c1ccccc1Sc1ccc2c(/C=C/c3ccccn3)n[nH]c2c1",
    "tested_on": "ZR-75-1",
    "experimental_result": 0.656
  },
  {
    "molecule": "Cc1ccc(C(=O)Nc2ccc(CN3CCN(C)CC3)c(C(F)(F)F)c2)cc1C#Cc1cnc2cccnn12",
    "tested_on": "ZR-75-1",
    "experimental_result": 0.047
  }
]

For each entry beneath this line, provide reported drug sensitivity score.
1. CC(C)(C)NC(=O)[C@H]1CC[C@H]2[C@@H]3CC[C@H]4NC(=O)C=C[C@]4(C)[C@H]3CC[C@]12C [Finasteride]
2. Cn1c(=O)c(F)c(Nc2ccc(I)cc2F)c2c(=O)n(C[C@@H](O)CO)cnc21

1. 0
2. 0

For each entry beneath this line, provide reported drug sensitivity score.
1. COCC[n+]1c2c(n(Cc3cnccn3)c1C)C(=O)c1ccccc1C2=O
2. CC1(C)CCC(c2ccc(Cl)cc2)=C(CN2CCN(c3ccc(C(=O)NS(=O)(=O)c4ccc(N[C@H](CCN5CCOCC5)CSc5ccccc5)c(S(=O)(=O)C(F)(F)F)c4)cc3)CC2)C1

1: 19; 2: 0
